# method-notes: Binding affinity to cereblon in human RV4:11 cells expressing wild type p53 assessed as reduction in cell growth inhibition measured after 4 days in presence of 10 uM lenalidomide
endpoint-name: IC50 (nM)

# compound, endpoint-name, value
measured = [
    ("O=C1CCC(N2Cc3c(CCCCCNC(=O)[C@@H]4NC5(CCCCC5)[C@@]5(C(=O)Nc6cc(Cl)ccc65)[C@H]4c4cccc(Cl)c4F)cccc3C2=O)C(=O)N1 (stereo partly specified)", "IC50", 96),
]

* * *

pIC50 values for the compounds below.
# method-notes: Binding affinity to cereblon in human MDA-MB-231 cells assessed as cell growth inhibition measured after 4 days
pIC50: −log10 of the molar value.
endpoint-name: pIC50

# compound, endpoint-name, value
data = [
    ("CNC(=O)[C@@H]1NC2(CCCCC2)[C@@]2(C(=O)Nc3cc(Cl)ccc32)[C@H]1c1cccc(Cl)c1F [US8629141, 21]", "pIC50", "< 5.00"),
    ("O=C1CCC(N2Cc3c(CCCCCNC(=O)c4ccc(NC(=O)[C@@H]5NC6(CCCCC6)[C@@]6(C(=O)Nc7cc(Cl)ccc76)[C@H]5c5cccc(Cl)c5F)cc4)cccc3C2=O)C(=O)N1 (some centres not stated)", "pIC50", "< 5.00"),
]

* * *

# method-notes: Binding affinity to cereblon in human RV4:11/IRMI-2 cells harboring p53 hotspot mutation Y236H/R249G assessed as reduction in cell growth inhibition measured after 4 days in presence of 30 uM lenalidomide
endpoint-name: IC50 (nM)

# compound, unit-tag, value
data = [
    ("O=C1CCC(N2Cc3c(CCCCCNC(=O)[C@@H]4NC5(CCCCC5)[C@@]5(C(=O)Nc6cc(Cl)ccc65)[C@H]4c4cccc(Cl)c4F)cccc3C2=O)C(=O)N1 (stereo partly specified)", "nM", 400),
]

* * *

# method-notes: Binding affinity to cereblon in human MDA-MB-231 cells assessed as reduction in cell growth inhibition measured after 4 days in presence of 10 uM of lenalidomide
endpoint-name: IC50 (nM)

# compound, value
rows = [
    ("O=C1CCC(N2Cc3c(CCCCCNC(=O)[C@@H]4NC5(CCCCC5)[C@@]5(C(=O)Nc6cc(Cl)ccc65)[C@H]4c4cccc(Cl)c4F)cccc3C2=O)C(=O)N1 (stereo partly specified)", 623),
]

* * *

# method-notes: Binding affinity to cereblon in human MDA-MB-468 cells assessed as reduction in cell growth inhibition measured after 4 days in presence of 10 uM lenalidomide
pIC50: −log10 of the molar value.

# compound, pIC50
measured = [
    ("O=C1CCC(N2Cc3c(CCCCCNC(=O)[C@@H]4NC5(CCCCC5)[C@@]5(C(=O)Nc6cc(Cl)ccc65)[C@H]4c4cccc(Cl)c4F)cccc3C2=O)C(=O)N1 (stereo partly specified)", 6.38),
]

* * *

IC50 values for the compounds below.
# method-notes: Binding affinity to cereblon in human RV4:11/IRMI-2 cells harboring p53 hotspot mutation Y236H/R249G assessed as cell growth inhibition measured after 4 days
endpoint-name: IC50

# compound, endpoint-name, value
rows = [
    ("O=C1CCC(N2Cc3c(CCCCCNC(=O)[C@@H]4NC5(CCCCC5)[C@@]5(C(=O)Nc6cc(Cl)ccc65)[C@H]4c4cccc(Cl)c4F)cccc3C2=O)C(=O)N1 (stereo partly drawn)", "IC50", "0.0031 µM"),
    ("O=C1CCC(N2Cc3c(CCCCCNC(=O)c4ccc(NC(=O)[C@@H]5NC6(CCCCC6)[C@@]6(C(=O)Nc7cc(Cl)ccc76)[C@H]5c5cccc(Cl)c5F)cc4)cccc3C2=O)C(=O)N1 (stereo partly drawn)", "IC50", "> 10 µM"),
    ("CNC(=O)[C@@H]1NC2(CCCCC2)[C@@]2(C(=O)Nc3cc(Cl)ccc32)[C@H]1c1cccc(Cl)c1F", "IC50", "> 10 µM"),
]

Recorded values, source BindingDB's records for doi:10.1021/acs.jmedchem.9b00846.
